melting point for assorted compounds
Structures can show the parent of a compound that is named as a salt.

melting point reported for this compound Cc1cc2c(s1)Nc1ccccc1N=C2N1CCN(C)[C@@H](CCc2ccncc2)C1 (as salt: hydrochloride) (hydrate or solvate) : 214 to 217 °C (dec.)

melting point reported for this compound COc1cccc(CC[C@H]2CN(C3=Nc4ccccc4Nc4sc(C)cc43)CCN2)c1 (as salt: hydrochloride) [Example 180, dihydrochloride] : 201 °C (dec.)

melting point reported for this compound Cc1cc2c(s1)Nc1ccccc1N=C2N1CCN(C)[C@@H](CCc2ccc(C(F)(F)F)cc2)C1 : 72 °C (dec.)

melting point reported for this compound Cc1cc2c(s1)Nc1ccccc1N=C2N1CCN(C)[C@@H](CCc2ccc3ccccc3c2)C1 (as salt: hydrochloride) : 209 °C (dec.)

melting point reported for this compound Cc1cc2c(s1)Nc1ccccc1N=C2N1CCN(C)[C@@H](CCc2ccccc2)C1 : 87 to 91 °C

melting point reported for this compound Cc1cc2c(s1)Nc1ccccc1N=C2N1CCN[C@@H](CCc2ccc(F)cc2F)C1 : 69 °C (dec.)

melting point reported for this compound Cc1cc2c(s1)Nc1ccccc1N=C2N1CCN(C)[C@@H](CCc2ccccc2C(F)(F)F)C1 : 68 °C (dec.)
